Sourced from PubChem BioAssay (NCI)

Give measured growth for each item. Keep answers brief.
Tested on: HL-60(TB) leukemia
assay protocol: NCI-60 one-dose screen, 48 h (100 = growth as untreated, 0 = no growth, -100 = all killed)
experimental conditions: 10 µM unless noted
About 83,000 compounds went through this panel and 20% of them were active in at least one assay; those are over-represented in the sample as a whole.
# number only, unit % dropped from output

## Task For `COc1cc(NC(=O)Nc2cnc(Nc3ccc(N4CCOCC4)cc3)nc2Oc2ccc(F)cc2)cc(OC)c1` , what is its reported growth?
## Result 65.4

## Task For `CC1(C)c2[nH]c3ccccc3c2C[C@]2(C)[C@H]3C(=O)C=C4[C@@H]5C[C@@](C)(C(N)=O)CC[C@]5(C)CC[C@@]4(C)[C@]3(C)CC[C@@H]12` , what is its reported growth?
## Result 59.9

## Task For `COc1ccc2[nH]cc(-c3nc(-c4c[nH]c5ncccc45)cs3)c2c1` , what is its reported growth?
## Result 13.9

## Task For `N#C/C(C(=O)c1ccccc1)=C1/C(=O)Nc2ccc(Br)cc21` , what is its reported growth?
## Result 146

## Task For `CC(=O)c1nc2ccccc2n1CCNC(N)=O` , what is its reported growth?
## Result 80.5

## Task For `CCN(CC)CCCN1C(=O)c2c(c(C)c3c(oc4cc(OC)ccc43)c2C)C1=O` , what is its reported growth?
## Result 95

## Task For `O=C1/C(=C\c2ccccc2)CN(C(=O)c2ccccc2F)C/C1=C\c1ccccc1` , what is its reported growth?
## Result 10.1

## Task For `COc1ccc(/C=C(\C(=O)NCc2cccnc2)S(=O)(=O)c2ccccc2)cc1OC` , what is its reported growth?
## Result 33

## Task For `Nc1[nH]nc(Nc2ccccc2)c1-c1nc2ccccc2s1` , what is its reported growth?
## Result 16.6

## Task For `CNC(=O)c1ccccc1Oc1nc(Nc2cc(OC)c(OC)c(OC)c2)ncc1Br` , what is its reported growth?
## Result 53.2

## Task For `Cc1cccc(-c2nc(Nc3ccc4ncsc4c3)c3ccccc3n2)n1` , what is its reported growth?
## Result 62.5

## Task For `C=CCSC(CC)(CC)C(=O)NC` , what is its reported growth?
## Result 89.3

## Task For `COc1ccc(-c2nc(NCCO)[nH]c(=O)c2C#N)cc1` , what is its reported growth?
## Result 103

## Task For `CN1CCN=C1c1ccc(NC(=O)c2ccc(C(=O)Nc3ccc(C4=NCCN4C)cc3)cc2)cc1` , what is its reported growth?
## Result 91.2

## Task For `CC(C)C(C#N)(C(C)C)C(C)C` , what is its reported growth?
## Result 109

## Task For `CCOC(=O)OCC(=O)[C@@]1(O)CC[C@H]2[C@@H]3CCC4=CC(=O)CC[C@]4(C)[C@H]3[C@@H](O)C[C@@]21C` , what is its reported growth?
## Result 108

## Task For `O=C1/C(=C/c2ccc3c(c2)OCO3)SC(=S)N1C1c2ccccc2Oc2ccccc21` , what is its reported growth?
## Result 86.1

## Task For `O=C1N/C(=C\c2ccccc2)c2ncccc21` , what is its reported growth?
## Result 117

## Task For `c1ccc2c(c1)Nc1cc3ccccc3cc1N2` , what is its reported growth?
## Result 7.75

## Task For `COc1ccc(C(=O)Cn2c(C(=O)c3ccc(OC)cc3)nc3ccccc32)cc1` , what is its reported growth?
## Result -50.7

## Task For `Cc1ccc(N2C(=O)CCC2=O)cc1` , what is its reported growth?
## Result 104

## Task For `C#CCOC(=O)Nc1ccccc1` , what is its reported growth?
## Result 99.7
